This listing pairs compounds with measured Flu-Abs.
- experimentSummary: Spectroscopic measurements (absorption, emission, quantum yield, extinction coefficient)
- Format: physicochemical
- conditions: BDNCA library, difference emission minus absorption

{"columns": ["cpdSmiles", "Flu-Abs"],
 "data": [
  ["CCOc1ccc(/C=C/C2=[N+]3C(=C(c4ccc(NC(=O)CCl)cc4)c4cccn4[B-]3(F)F)C(C)=C2)cc1OCC", 51],
  ["COc1cc(/C=C/C2=[N+]3C(=C(c4ccc(NC(=O)CCl)cc4)c4cccn4[B-]3(F)F)C(C)=C2)cc(Cl)c1O", 30],
  ["CC1=CC(/C=C/c2c(Br)ccc3c2OCO3)=[N+]2C1=C(c1ccc(NC(=O)CCl)cc1)c1cccn1[B-]2(F)F", 21],
  ["COc1cc(/C=C/C2=[N+]3C(=C(c4ccc(NC(=O)CCl)cc4)c4cccn4[B-]3(F)F)C(C)=C2)cc(Cl)c1OC", 21],
  ["COc1ccc(Oc2ccc(/C=C/c3cc(C)c4n3[B-](F)(F)[N+]3=CC=CC3=C4c3ccc(NC(=O)CCl)cc3)cc2)cc1", 26],
  ["COc1cc(Cl)c(/C=C/C2=[N+]3C(=C(c4ccc(NC(=O)CCl)cc4)c4cccn4[B-]3(F)F)C(C)=C2)c(Cl)c1O", 24]
]}

---

A collection of compounds and their measured Flu-Abs
- experimentSummary: Spectroscopic measurements (absorption, emission, quantum yield, extinction coefficient)
- Assay type: physicochemical
- conditions: difference of emission and absorption maxima

{"columns": ["cpdSmiles", "Flu-Abs"],
 "data": [
  ["CCOc1cc(/C=C/C2=[N+]3C(=C(c4ccc(NC(=O)CCl)cc4)c4cccn4[B-]3(F)F)C(C)=C2)ccc1O", 40],
  ["CCOc1ccccc1/C=C/c1cc(C)c2n1[B-](F)(F)[N+]1=CC=CC1=C2c1ccc(NC(=O)CCl)cc1", 23],
  ["CC1=CC(/C=C/c2cccs2)=[N+]2C1=C(c1ccc(NC(=O)CCl)cc1)c1cccn1[B-]2(F)F", 25],
  ["CC1=CC(/C=C/c2ccccc2OC(F)(F)F)=[N+]2C1=C(c1ccc(NC(=O)CCl)cc1)c1cccn1[B-]2(F)F", 16],
  ["CC1=CC(/C=C/c2c3ccccc3c(C)c3ccccc23)=[N+]2C1=C(c1ccc(NC(=O)CCl)cc1)c1cccn1[B-]2(F)F", 17],
  ["CC1=CC(/C=C/c2cc(C)c(C)cc2C)=[N+]2C1=C(c1ccc(NC(=O)CCl)cc1)c1cccn1[B-]2(F)F", 26],
  ["CC1=CC(/C=C/c2ccc(-c3ccccc3)c(F)c2)=[N+]2C1=C(c1ccc(NC(=O)CCl)cc1)c1cccn1[B-]2(F)F", 21],
  ["Cc1cc(/C=C/c2ccc(OCc3ccc(F)cc3)cc2)n2c1C(c1ccc(NC(=O)CCl)cc1)=C1C=CC=[N+]1[B-]2(F)F", 31],
  ["CC1=CC(/C=C/c2ccc(Cl)c(F)c2)=[N+]2C1=C(c1ccc(NC(=O)CCl)cc1)c1cccn1[B-]2(F)F", 19],
  ["CC1=CC(/C=C/c2c[nH]c3ccccc23)=[N+]2C1=C(c1ccc(NC(=O)CCl)cc1)c1cccn1[B-]2(F)F", 63],
  ["CCOc1c(/C=C/C2=[N+]3C(=C(c4ccc(NC(=O)CCl)cc4)c4cccn4[B-]3(F)F)C(C)=C2)cccc1OC", 24],
  ["CC1=CC(/C=C/C2CCCCC2)=[N+]2C1=C(c1ccc(NC(=O)CCl)cc1)c1cccn1[B-]2(F)F", 23],
  ["CC1=CC(/C=C/c2ncc[nH]2)=[N+]2C1=C(c1ccc(NC(=O)CCl)cc1)c1cccn1[B-]2(F)F", 44],
  ["CCOc1cccc(/C=C/C2=[N+]3C(=C(c4ccc(NC(=O)CCl)cc4)c4cccn4[B-]3(F)F)C(C)=C2)c1OCC", 22]
]}
